- study.system: 11β-HSD (Homo sapiens, UniProt P28845)
- Sequence (P28845 whole entry): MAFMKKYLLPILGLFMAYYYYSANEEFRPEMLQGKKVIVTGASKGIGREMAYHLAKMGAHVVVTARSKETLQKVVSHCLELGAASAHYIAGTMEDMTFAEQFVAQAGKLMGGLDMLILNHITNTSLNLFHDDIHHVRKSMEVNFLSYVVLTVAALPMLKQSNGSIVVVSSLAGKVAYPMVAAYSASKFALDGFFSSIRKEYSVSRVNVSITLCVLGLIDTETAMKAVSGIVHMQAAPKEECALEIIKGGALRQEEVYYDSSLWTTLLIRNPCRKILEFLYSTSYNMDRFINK
- assay.explanation: in vitro 11β-HSD Assay (human microsomes, CISBIO Cortisol kit)
- setup.conditions: 160 nM cortisone, 200 μM NADPH, 2 h at 37° C.
pEC50: −log10 of the molar value.
measured.metric: pEC50

Reference set, count: 3
O=C(NC1C2CC3CC1CC(O)(C3)C2)c1cccc([S+]([O-])c2ccc(Cl)cn2)c1 (stereo not drawn) [Example 4] = > 6.30
O=C(NC1C2CC3CC1CC(O)(C3)C2)c1cccc(S(=O)(=O)c2ccc(Cl)cn2)c1 (stereo not drawn) [Example 5] = > 5.52
O=C(NC1C2CC3CC1CC(O)(C3)C2)c1cccc(Oc2ccc(Cl)nn2)c1 (stereo not drawn) [Example 6] = > 6.70

query: Supply measured pEC50 of O=C(NC1C2CC3CC1CC(O)(C3)C2)c1cccc(Oc2ncc(Cl)cc2Cl)c1 (stereo not drawn) [Example 7] in your reply.
result: > 6.70

query: Please give measured pEC50 of the following entry: O=C(NC1C2CC3CC1CC(O)(C3)C2)c1cccc(Sc2ccc(Cl)cn2)c1 (stereo not drawn) [Example 3]
result: > 6.70

query: Name the recorded pEC50 of the item Cc1cc(C)nc(Nc2cccc(C(=O)NC3C4CC5CC3CC(O)(C5)C4)c2)n1 (stereo not drawn) [Example 9] in your answer.
result: > 6.30

query: Identify pEC50 associated with the compound O=C(NC1C2CC3CC1CC(O)(C3)C2)c1cccc(Nc2ccc(Cl)cn2)c1 (stereo not drawn) [Example 8]
result: > 6.70

query: Provide one value: measured pEC50 of O=C(NC1C2CC3CC1CC(O)(C3)C2)c1cccc(Oc2ccc(Cl)cn2)c1 (stereo not drawn) [Example 1]
result: > 6.70

query: Assign pEC50 to the following record: O=C(NC1C2CC3CC1CC(O)(C3)C2)c1cccc(Oc2ccc(C(F)(F)F)cn2)c1 (stereo not drawn) [Example 2]
result: > 6.70

Each recorded value in this set is attributed to patent US8927549B2.
